- tgt: Luciferin 4-monooxygenase (Photinus pyralis)
- assay_overview: qHTS profiling assay for firefly luciferase inhibitor/activator using purifed enzyme and Km concentrations of substrates (counterscreen for miR-21 project); further: nearly all actives have a fitted effect of over 55% in size
- particulars: purified FLuc, luminescence inhibition; series mostly up to 57.5 µM
Among all 360,000 compounds or so, about 25,000 (6.9%) were called active. Not shown: some 9% with an inconclusive outcome. The call rests on the fitted dose curve; in most records, active means well fitted inhibition curve with a large enough effect; inconclusive means small, poorly fitted or top-dose-only effect; inactive means flat fitted curve, though single readings scatter. Shown is part of a subset that was picked to be rich in actives.
Outcome field: choose from yes (1) = active, no (0) = inactive

Worked examples, 5 compounds total:
compound | label
COc1ccc(S(=O)(=O)NCc2cccn2Cc2cccc(C)c2)cc1Cl | no (0)
Cc1cc(Cl)c2oc(C(=O)N(C)C(C)c3ccccn3)c(C)c2c1 (stereo unspecified) | yes (1)
CCC(=O)N1CCc2cc(Br)cc(S(=O)(=O)Nc3ccc(C)cc3C)c21 | no (0)
Cc1cc(Cl)c2oc(C(=O)NC(C)c3ccncn3)c(C)c2c1 (stereo unspecified) | no (0)
CCOC(=O)c1ccc(NC(=O)Cn2cc(S(=O)(=O)Cc3ccccc3F)c3ccccc32)cc1 | no (0)

Q: Identify the outcome logged in this assay for the compound shown: COc1ccc(C(=O)Nc2ccc(C(=O)NCC3CCCO3)cc2)c(OC)c1OC (stereo unspecified)
Result: no (0)

Q: Identify the outcome logged in this assay for the compound shown: CC(=O)Nc1cc(C(=O)NCc2ccc(F)cc2)ccc1Sc1ccc(F)cc1
Result: no (0)

Q: Identify the outcome logged in this assay for the compound shown: Cc1cc(Cl)c2oc(C(=O)N3CCC(O)(c4ccccc4)CC3)c(C)c2c1
Result: no (0)

Q: Identify the outcome logged in this assay for the compound shown: O=C(Cn1nnc2ccccc2c1=O)Nc1cc(C(F)(F)F)ccc1N1CCOCC1
Result: no (0)

Q: Identify the outcome logged in this assay for the compound shown: COC(=O)c1ccc(Sc2ccc(F)cc2)c(N)c1
Result: yes (1)

Q: Identify the outcome logged in this assay for the compound shown: Cc1nn(CC(=O)NCCc2ccccc2)c(=O)c2c1sc1ccccc12
Result: no (0)

Hello, the source for this data is PubChem BioAssay AID588342, in case you need it.
